- Tested on: DAF-12 nuclear receptor (Haemonchus contortus)
- measurement_description: hcDAF-12 driven luciferase reporter activation – cell-based, luminescence, HEK293, lit1-tk-luc reporter, primary screen (AID 652067)
- experimental_conditions: HEK293 hcDAF-12 lit1-tk-luc reporter, at 6.8 µM, 0% DMSO, 100% Δ7-dafachronic acid
Out of some 370,000 compounds screened, about 5,400 (1.5%) were called active.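 Rule for the calls: active = activation above the mean of all tested compounds plus 3 SD (cut at about 5.5% in these data); inactive = the rest.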 The full list was thinned out, with actives kept by preference.
Outcome field: choose from active, inactive

Recorded results for 3 compounds are shown here.
                              sample_smiles  qualitative_label
0    O=c1[nH]c(CCl)nc2cc(-c3ccc(Cl)cc3)sc12             active
1   COc1cccc(/C=C/C(=O)Nc2ccc3c(c2)OCCO3)c1           inactive
2  CCOC(=O)C1CCN(C(=O)C(C)(C)NC(=O)Nc2ccccc2Cl)CC1           inactive

We next turn to a different compound, shown below.
Q) I'd appreciate the recorded outcome for Cc1cccc(NC(=O)/C=C/c2ccc3c(c2)OCO3)n1 from this test.
A) active

These entries and their values trace back to PubChem BioAssay AID652067.
